targetUnderTest: Immunoglobulin G (IgG)
methodNotes: Microscale thermophoresis binding affinity with IgG (Monolith NT.115)
assayConditions: in saline; construct 500 nM; IgG 12.5 μM-350 pM
propertyMeasured: pKd
In plain terms, pKd is the concentration in mol/L turned into minus its base-10 logarithm.

Challenge: I'm curious: which pKd was measured for `O=C(NCC[n+]1ccccc1)c1ccc2c(c1)C1(OC2=O)c2ccc(O)cc2Oc2cc(O)ccc21` tested on Immunoglobulin G (IgG)?
Response given: 5.82

====

targetUnderTest: Immunoglobulin G (IgG)
methodNotes: Microscale thermophoresis binding affinity with IgG (Monolith NT.115)
assayConditions: in PBS; construct 500 nM; IgG 12.5 μM-350 pM
propertyMeasured: pKd
In plain terms, pKd is the concentration in mol/L turned into minus its base-10 logarithm.

Challenge: I'm curious: which pKd was measured for O=C(NCC[n+]1ccccc1)c1ccc2c(c1)C1(OC2=O)c2ccc(O)cc2Oc2cc(O)ccc21 [pyridinium-fluorescein construct] tested on Immunoglobulin G (IgG)?
Response given: 7.70
